// data source = paper PMC11387234

target: TRPM7 (Mus musculus, UniProt Q923J1); experiment: Aequorin-based Ca2+ influx assay for TRPM7 inhibition; type: cell-based; conditions: relative to NS8593 (Figure 1C)
Sequence (Q923J1 whole entry): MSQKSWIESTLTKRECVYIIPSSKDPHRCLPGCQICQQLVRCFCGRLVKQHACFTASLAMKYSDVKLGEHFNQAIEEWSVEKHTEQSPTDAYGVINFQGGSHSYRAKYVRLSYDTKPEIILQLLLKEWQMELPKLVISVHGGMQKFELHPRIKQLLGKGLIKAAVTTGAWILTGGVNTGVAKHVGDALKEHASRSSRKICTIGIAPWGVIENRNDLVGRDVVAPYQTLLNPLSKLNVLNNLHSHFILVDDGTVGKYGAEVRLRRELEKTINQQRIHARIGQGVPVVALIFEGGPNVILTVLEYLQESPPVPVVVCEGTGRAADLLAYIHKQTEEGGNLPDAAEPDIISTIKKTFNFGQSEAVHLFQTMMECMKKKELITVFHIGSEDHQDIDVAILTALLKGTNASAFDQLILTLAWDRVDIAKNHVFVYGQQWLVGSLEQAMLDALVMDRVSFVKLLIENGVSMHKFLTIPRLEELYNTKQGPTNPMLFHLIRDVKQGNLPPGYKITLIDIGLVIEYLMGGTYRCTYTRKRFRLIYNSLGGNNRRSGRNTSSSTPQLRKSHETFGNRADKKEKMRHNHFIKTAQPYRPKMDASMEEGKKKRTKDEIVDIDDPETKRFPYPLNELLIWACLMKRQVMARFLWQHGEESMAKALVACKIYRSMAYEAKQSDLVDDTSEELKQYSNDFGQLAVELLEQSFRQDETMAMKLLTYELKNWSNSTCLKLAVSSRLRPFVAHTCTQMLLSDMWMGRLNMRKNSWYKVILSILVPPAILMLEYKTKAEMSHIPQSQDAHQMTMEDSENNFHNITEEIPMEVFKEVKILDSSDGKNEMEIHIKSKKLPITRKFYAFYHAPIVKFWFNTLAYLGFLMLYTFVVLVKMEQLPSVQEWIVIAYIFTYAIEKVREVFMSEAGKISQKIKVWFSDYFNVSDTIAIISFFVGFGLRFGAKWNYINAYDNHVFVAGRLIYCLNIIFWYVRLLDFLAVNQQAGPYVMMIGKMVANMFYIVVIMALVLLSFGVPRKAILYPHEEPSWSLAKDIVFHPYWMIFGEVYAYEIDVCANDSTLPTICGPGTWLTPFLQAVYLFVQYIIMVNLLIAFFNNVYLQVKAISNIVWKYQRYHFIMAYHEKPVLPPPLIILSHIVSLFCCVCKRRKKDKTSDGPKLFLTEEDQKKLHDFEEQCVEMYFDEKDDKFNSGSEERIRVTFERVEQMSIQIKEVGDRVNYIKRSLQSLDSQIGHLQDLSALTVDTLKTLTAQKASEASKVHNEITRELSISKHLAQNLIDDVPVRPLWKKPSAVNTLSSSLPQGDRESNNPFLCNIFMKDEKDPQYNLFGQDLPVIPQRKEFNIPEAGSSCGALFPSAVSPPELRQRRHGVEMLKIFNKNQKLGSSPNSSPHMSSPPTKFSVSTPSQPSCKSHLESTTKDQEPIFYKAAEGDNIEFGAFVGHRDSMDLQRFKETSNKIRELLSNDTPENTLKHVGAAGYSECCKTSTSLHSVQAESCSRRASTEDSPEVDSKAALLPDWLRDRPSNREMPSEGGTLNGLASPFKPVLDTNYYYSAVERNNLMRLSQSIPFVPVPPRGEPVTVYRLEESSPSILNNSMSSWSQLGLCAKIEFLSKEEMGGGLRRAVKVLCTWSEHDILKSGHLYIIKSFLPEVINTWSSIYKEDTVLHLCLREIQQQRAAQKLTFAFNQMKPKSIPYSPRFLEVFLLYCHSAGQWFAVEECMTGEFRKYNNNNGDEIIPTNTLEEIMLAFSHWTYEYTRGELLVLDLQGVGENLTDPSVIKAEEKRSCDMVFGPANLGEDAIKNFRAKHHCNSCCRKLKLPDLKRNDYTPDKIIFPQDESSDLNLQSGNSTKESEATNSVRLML
Reported Metric: TRPM7 affinity compared to NS

Previously resolved entries follow.
molecule="c1ccc2[nH]c(NC3CCCc4ccncc43)nc2c1 (centres unmarked) [compound 7]" result=<NS
molecule="c1ccc2[nH]c(NC3CCCc4sccc43)nc2c1 (centres unmarked) [compound 8]" result=<NS
molecule="Fc1ccc2c(c1)C(Nc1nc3ccccc3[nH]1)CCC2 (centres unmarked) [compound 2]" result=<NS
molecule="c1ccc2c(c1)CCCC2Nc1nc2ccccc2[nH]1 (centres unmarked) [compound 1]" result==NS
molecule="Cc1ccc2c(c1)C(Nc1nc3ccccc3[nH]1)CCC2 (centres unmarked) [compound 4]" result=<NS

Field TRPM7 affinity compared to NS (entry Clc1cccc2c1CCCC2Nc1nc2ccccc2[nH]1 (centres unmarked) [compound 5] ) reads >NS

Lookup result for Clc1cc2c(cc1Cl)C(Nc1nc3ccccc3[nH]1)CCC2 (centres unmarked) [compound 6] ; measured TRPM7 affinity compared to NS: =NS

For record COc1ccc2c(c1)C(Nc1nc3ccccc3[nH]1)CCC2 (centres unmarked) [compound 3] the listed TRPM7 affinity compared to NS is <NS
